Read-out: adenosine kinase (ADK) gene, ADK (gene 132)
Assay: LTEA_HepaRG_ADK: Life Technologies and Expression Analysis (LTEA) Assay for adenosine kinase (ADK) gene using HepaRG (AID 2283471)
Conditions: mRNA level, 48 h; actives raise or lower the signal
The source made the active and inactive calls. The calls were made as follows: active = hit-call score of the fitted dose curve at least 0.9, where 1 is the maximum; inactive = score below 0.9.
Classes to choose from: active, inactive

Worked examples, 3 compounds total:
Compound	Class name
C1CC2OC2CC1C1CO1 (centres undefined)	inactive
O=C(NC(=O)c1cc(F)c(F)cc1Cl)Nc1cc(F)ccc1N1CCC(C(=O)O)CC1	inactive
CCCCCCCCCC[N+](C)(C)CCCCCCCCCC	active

# input Hi team, can someone confirm the assay call for CC(C)(O)C(=O)Nc1ccc([N+](=O)[O-])c(C(F)(F)F)c1 ?
# output inactive

# input Hi team, can someone confirm the assay call for CN(C)CCO ?
# output inactive

# input Hi team, can someone confirm the assay call for ClC(Cl)=C(c1ccc(Cl)cc1)c1ccc(Cl)cc1 ?
# output inactive

###

Experiment: Tanguay_ZF_120hpf_SWIM_legacy: (Legacy) Oregon State University Tanguay Lab 120 Hour Post-fertilization zebrafish Assay for Swim Bladder Malformation (AID 2283654);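 also: swim bladder malformation in each larva scored yes or no under brightfield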
Inconclusive results are not listed. The source made the active and inactive calls. The calls were made as follows: active = hit-call score of the fitted dose curve at least 0.9, where 1 is the maximum; inconclusive = response in the unintended direction; inactive = score below 0.9.
Classes to choose from: True (active), False (inactive)

Worked examples, 3 compounds total:
Compound	Class name
ClC1=C(Cl)[C@]2(Cl)[C@@H]3[C@@H]4C[C@@H]([C@H]5O[C@@H]45)[C@@H]3[C@@]1(Cl)C2(Cl)Cl	False
CC(C)(O)C(=O)Nc1ccc([N+](=O)[O-])c(C(F)(F)F)c1	False
O=C(O)C(F)(F)C(F)(F)C(F)(F)C(F)(F)C(F)(F)C(F)(F)C(F)(F)C(F)(F)F	False

# input Hi team, can someone confirm the assay call for CC(C)(c1ccccc1)c1ccc(O)cc1 ?
# output False

# input Hi team, can someone confirm the assay call for CO/C=C(/C(=O)OC)c1ccccc1COc1cccc(C(F)(F)F)n1 ?
# output True

# input Hi team, can someone confirm the assay call for Cc1ccc(O)c(C)c1 ?
# output False

# input Hi team, can someone confirm the assay call for CCOC(=O)C(O)(c1ccc(Cl)cc1)c1ccc(Cl)cc1 ?
# output False

# input Hi team, can someone confirm the assay call for CCC(C)c1cc([N+](=O)[O-])cc([N+](=O)[O-])c1O (centres undefined) ?
# output False

# input Hi team, can someone confirm the assay call for CC#Cc1cc(C)nc(Nc2ccccc2)n1 ?
# output False

# input Hi team, can someone confirm the assay call for CCC(C)(c1ccc(O)cc1)c1ccc(O)cc1 ?
# output True

# input Hi team, can someone confirm the assay call for Cc1ccccc1[N+](=O)[O-] ?
# output False

# input Hi team, can someone confirm the assay call for COS(=O)(=O)OC ?
# output False

# input Hi team, can someone confirm the assay call for O=C(NC(=O)c1cc(F)c(F)cc1Cl)Nc1cc(F)ccc1N1CCC(C(=O)O)CC1 ?
# output False

# input Hi team, can someone confirm the assay call for Cc1ccccc1O ?
# output False

###

Read-out: Caspase-3 (Homo sapiens) (UniProt P42574)
Sequence (P42574 whole entry, looked up): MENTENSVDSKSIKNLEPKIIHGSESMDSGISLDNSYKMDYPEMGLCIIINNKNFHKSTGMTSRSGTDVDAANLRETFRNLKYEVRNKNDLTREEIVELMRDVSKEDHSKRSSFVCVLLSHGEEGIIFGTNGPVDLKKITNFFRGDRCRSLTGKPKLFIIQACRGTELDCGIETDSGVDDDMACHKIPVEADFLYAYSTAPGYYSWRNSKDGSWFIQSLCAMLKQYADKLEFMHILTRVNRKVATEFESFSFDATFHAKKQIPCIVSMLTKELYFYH
Assay: LTEA_HepaRG_CASP3: Life Technologies and Expression Analysis (LTEA) Assay for cysteine-aspartic acid protease (CASP3) using HepaRG (AID 2283477)
Conditions: mRNA level, 48 h; actives raise or lower the signal
Active and inactive are the calls of the source. How the source made its calls: active means hit-call score of the fitted dose curve at least 0.9, where 1 is the maximum; inactive means score below 0.9.
Classes to choose from: T (active), F (inactive)

Worked examples, 6 compounds total:
Compound	Class name
Cc1cccc([N+](=O)[O-])c1	F
Cc1cccc(C)c1N	F
CO/C=C(/C(=O)OC)c1ccccc1COc1cccc(C(F)(F)F)n1	F
O=C(O)C(F)(F)C(F)(F)C(F)(F)C(F)(F)C(F)(F)F	T
O=C(O)C(F)(F)C(F)(F)C(F)(F)C(F)(F)C(F)(F)C(F)(F)C(F)(F)C(F)(F)F	F
C=CC(N)=O	F

# input Hi team, can someone confirm the assay call for CC(c1ccc(O)cc1)(c1ccc(O)cc1)c1ccc(O)cc1 ?
# output T
